Where do the numbers come from? From ChEMBL document CHEMBL3988442.

# Tested on: Mycobacterium tuberculosis
# test_description: Cornell M. t heat shock assay; note: in the data most compounds retested in dose-response had high values
# Assay type: functional, organism-based
# Set-up: dose or concentration left out as unconfirmed
In all, about 69,000 compounds went through this assay and about 950 (1.4%) showed an effect of 50% or more. The list comes from a sample in which strong results are over-represented; it also holds close analogues and randomly drawn compounds.
outcome_measure: Percent Effect (%)
Report as a plain number; the unit % is understood.

// below: answered compounds
Cc1ccccc1N1CCN(c2nc(N(C)C)nc3c2CCNC3)CC1: 99.74
c1ccc2c(c1)CCN(c1nc(-c3ccncc3)nc3c1CCNC3)C2: 105.2
CN(C)c1nc2c(c(N3CCc4ccccc4C3)n1)CCNC2: 101.7
O=CO.c1cc2nccc(CC3CCCN(Cc4c[nH]cn4)CC3)c2cn1 (stereo unspecified): -8.502

Recorded Percent Effect (compound `Cc1nc2c(c(N3CCN(c4ncccc4C(N)=O)CC3)n1)CCNC2` ): 6.854

Form field Percent Effect, entry `Cc1cc2n(n1)CCN(c1nc(N(C)C)nc3c1CCNC3)C2` : 7.698
